# test method notes: Human HepG2 cell viability assay in 384 well format
# Format: toxicity, cell-based
# Design: dose 125 nL, time 70.5 hour; concentration not given beside the values
# condition parameters: HepG2 cells, read-out: Inhibition
readout name: cytotoxicity at 70.5 h (%)
Your answer should be a plain number; it is taken to be in %.

Consider the following illustrative entries.
1) O=C1CC2(CCN(Cc3ccncc3)C2)CN1c1ccc2c(c1)OCO2 (stereo unspecified)
30
2) Cc1ccc(OCC(C)NS(C)(=O)=O)cc1 (stereo unspecified)
-4.31
3) CC(=O)N(Cc1noc(C)n1)C1CCN(Cc2cccc(C#N)c2)C1 (stereo unspecified)
30.1

According to the records, this molecule `Nc1nnc(CCNc2ncnc3c2CCN(C(=O)C2CC2)C3)s1` displays cytotoxicity at 70.5 h of -4.19

According to the records, this molecule `CCc1c(C)nc(C)nc1N1C[C@@H](CN(CC)CCO)[C@@H](CO)C1` displays cytotoxicity at 70.5 h of 10.3

* * *

# test method notes: Human HepG2 cell viability assay in 384 well format
# Format: toxicity, cell-based
# Set-up: dose 125 nL, time 70.5 hour; concentration not given beside the values
# condition parameters: HepG2 cells, read-out: Inhibition
readout name: cytotoxicity at 70.5 h (%)
Your answer should be a plain number; it is taken to be in %.

1. c1ccc(-c2cnc(CN3CCn4c(nnc4C4CC4)C3)o2)cc1
-9.82
2. CC(=O)N(C)C(c1cccc(F)c1)c1ccccn1 (stereo not drawn)
8.62
3. COCC1CN(C(=O)N2CCCC2)Cc2cnn(CC3CCCC3)c21 (stereo not drawn)
-1.96
4. CC(C)=CCS(=O)(=O)Cc1nc(C(C)C)no1
-11.6
5. Cn1cnc(S(=O)(=O)Nc2cc(C(N)=O)ccc2Cl)c1
-8.58
6. COc1ccc(OCCN(C)S(=O)(=O)N2CCOCC2)cc1
-6.12
7. O=C(CC1CC1)N1CC[C@@H]2[C@H](CC1)N(Cc1cccnc1)CCS2(=O)=O
5.01
8. CN1CCC(c2[nH]ncc2S(C)(=O)=O)CC1
-7.29

According to the records, this molecule `Cc1cc(N2CCC(c3n[nH]c4nccnc34)CC2)ncn1` displays cytotoxicity at 70.5 h of 19

According to the records, this molecule `CCN(Cc1cc(=O)n2cc(Br)ccc2n1)C1CC1` displays cytotoxicity at 70.5 h of -7.36

* * *

# test method notes: Human HepG2 cell viability assay in 384 well format
# Assay type: toxicity, cell-based
# Set-up: dose 125 nL, time 70.5 hour; concentration not given beside the values
# condition parameters: HepG2 cells, read-out: Inhibition
readout name: cytotoxicity at 70.5 h (%)
Your answer should be a plain number; it is taken to be in %.

1) Cc1nc(N2CCOc3ccc(CO)cc3C2)c2c(C)noc2n1
-2.39

According to the records, this compound `O=C(N1CCCO1)[C@@]12CCO[C@@H]1CCN(Cc1ccsc1)C2` displays cytotoxicity at 70.5 h of -6.2

According to the records, this compound `CN(Cc1n[nH]c2c1CCC2)C(=O)CCc1cc2n(n1)CCNC2` displays cytotoxicity at 70.5 h of -4.27

According to the records, this compound CC(SCC(=O)N(C)CC(=O)NC1CC1)c1cc(F)ccc1F (centres undefined) displays cytotoxicity at 70.5 h of 14.2

According to the records, this compound `COCCN(Cc1ccc(F)cc1Cl)C(=O)c1c(C)noc1C` displays cytotoxicity at 70.5 h of 2.4
